Species: Rattus norvegicus
Test: DrugMatrix - Regimen: Daily Repeat
Type: toxicity, organism-based, Sprague-Dawley
Set-up: regimen Daily Repeat, gender Male, age 6-8 weeks
Settings: in vivo, po, 2000 mg/kg, 120 h, tissue Plasma, route oral GAVAGE, dose level High, time 5 day, vehicle .5 % CMC
Entry flag: rule met if ALBUMIN reaches 4 G/DL; rule not met if it does not.

Examples with answers:
In plain terms: is recorded ALBUMIN at least 4 G/DL for COc1cc2nc(N3CCN(C(=O)c4ccco4)CC3)nc(N)c2cc1OC [PRAZOSIN] ?
rule not met

Can CN(C/C=C/C#CC(C)(C)C)Cc1cccc2ccccc12 [TERBINAFINE] be said to have ALBUMIN at or above 4 G/DL?
rule not met

***
Could you tell me if the measured ALBUMIN of NC1CCN(c2nc3c(cc2F)c(=O)c(C(=O)O)cn3-c2ccc(F)cc2F)C1 (stereo unspecified) [TOSUFLOXACIN] reaches 4 G/DL or more?
rule not met

Decide: ALBUMIN of CC1(C)S[C@@H]2[C@H](NC(=O)[C@H](N)c3ccccc3)C(=O)N2[C@H]1C(=O)O [AMPICILLIN] >= 4 G/DL?
rule met

State whether the measured ALBUMIN reaches 4 G/DL, counting equality as reaching it, for O=C1Nc2ccc(Cl)cc2C(c2ccccc2Cl)=NC1O (stereo unspecified) [LORAZEPAM]
rule met

---

Species: Rattus norvegicus
Assay: DrugMatrix - Regimen: Daily Repeat
Format: toxicity, organism-based, Sprague-Dawley
Set-up: regimen Daily Repeat, gender Male, age 6-8 weeks
Details: in vivo, po, 0 mg/kg, 120 h, tissue Plasma, route oral GAVAGE, dose level Control, time 5 day, vehicle .5 % CMC
// reported ALKALINE PHOSPHATASE per item
Numbers only here, please. The scale is u/L.

Please supply the value of reported ALKALINE PHOSPHATASE for the item Cn1c(=O)c2c(ncn2CC(O)CO)n(C)c1=O (centres undefined)
382.5

New cases:
Return ALKALINE PHOSPHATASE for the following compound: O=C1C(CC[S+]([O-])c2ccccc2)C(=O)N(c2ccccc2)N1c1ccccc1 (centres undefined)
352.33

Specify reported ALKALINE PHOSPHATASE for the compound shown: NC1CCN(c2nc3c(cc2F)c(=O)c(C(=O)O)cn3-c2ccc(F)cc2F)C1 (centres undefined)
340.33

Find the measured ALKALINE PHOSPHATASE of `COC1=C(OC)C(=O)C(CCCCCCCCCCO)=C(C)C1=O` and report it.
337

Report measured ALKALINE PHOSPHATASE; entry is CNCCC(Oc1ccc(C(F)(F)F)cc1)c1ccccc1 (centres undefined)
369.5

---

Species: Rattus norvegicus
Assay: DrugMatrix - Regimen: Daily Repeat
Type: toxicity, organism-based, Sprague-Dawley
Set-up: regimen Daily Repeat, gender Male, age 6-8 weeks
Conditions: in vivo, sc, 0 mg/kg, 72 h, tissue Plasma, route subcutaneous, dose level Control, time 3 day, […]
In this section, each of the compounds is paired with its reported TOTAL PROTEIN.
Write the number in G/DL without appending the unit.

Look up and report measured TOTAL PROTEIN for this entry: `O=C(Nc1ccc(Br)cc1)c1cc(Br)cc(Br)c1O`
5.95

***
Find the measured TOTAL PROTEIN of CCN(CC)CCOCCC1=CCC2CC1C2(C)C (stereo not given) and report it.
6.15

Give reported TOTAL PROTEIN value for CC(C)(C)CC(C)(C)c1ccc(OCCOCC[N+](C)(C)Cc2ccccc2)cc1.[Cl-] [BENZETHONIUM CHLORIDE]
5.73

Consider the compound CCC(=O)O[C@]1(C(=O)CCl)[C@@H](C)C[C@H]2[C@@H]3CCC4=CC(=O)C=C[C@]4(C)[C@@]3(F)[C@@H](O)C[C@@]21C [CLOBETASOL PROPIONATE] . State its measured TOTAL PROTEIN.
5.95

Read off the recorded TOTAL PROTEIN for `Oc1c(Cl)cc(Cl)c(Cl)c1Cc1c(O)c(Cl)cc(Cl)c1Cl`
5.73

---

Species: Rattus norvegicus
Test: DrugMatrix - Regimen: Daily Repeat
Format: toxicity, organism-based, Sprague-Dawley
Design: regimen Daily Repeat, gender Male, age 6-8 weeks
Conditions: in vivo, ip, 0 mg/kg, 120 h, tissue Blood, route intraperitoneal, dose level Control, time 5 day, vehicle 100 % SALINE
readout kind: ABSOLUTE MONOCYTE (cells/µL)
Field: numeric (cells/µL). Do not append units.

Please give the documented ABSOLUTE MONOCYTE of `GENTAMICIN`
140

---

Species on record: Rattus norvegicus
Assay: DrugMatrix - Regimen: Daily Repeat
Assay type: toxicity, organism-based, Sprague-Dawley
Design: regimen Daily Repeat, gender Male, age 6-8 weeks
Settings: in vivo, po, 0 mg/kg, 72 h, tissue Plasma, route oral GAVAGE, dose level Control, time 3 day, vehicle .5 % CMC
readout kind: CREATININE
Form field: result (number plus unit)

# example entries with known answers
Please supply the value of reported CREATININE for the item CC(C(=O)O)c1ccc2oc(-c3ccc(Cl)cc3)nc2c1 (stereo not given) [BENOXAPROFEN]
0.25 mg/dL

Look up CREATININE of CC(=O)Oc1ccc(C(c2ccc(OC(C)=O)cc2)c2ccccn2)cc1 [BISACODYL] and report it.
0.52 mg/dL

# return recorded CREATININE for entry CN(C/C=C/C#CC(C)(C)C)Cc1cccc2ccccc12 [TERBINAFINE]
0.48 mg/dL

Name the recorded CREATININE of the compound listed here: Clc1ccccc1CN1CCc2sccc2C1 [TICLOPIDINE]
0.58 mg/dL

Please look at this compound and report its CREATININE: O=C1Nc2ccc(Cl)cc2C(c2ccccc2Cl)=NC1O (stereo not given) [LORAZEPAM]
0.18 mg/dL

Given the compound Cn1c(=O)c2c(ncn2CC(O)CO)n(C)c1=O (stereo not given) [DYPHYLLINE] , write its reported CREATININE.
0.19 mg/dL

Give a short answer stating reported CREATININE for CNCCC(Oc1ccc(C(F)(F)F)cc1)c1ccccc1 (stereo not given) [FLUOXETINE] .
0.55 mg/dL

Specify reported CREATININE for the compound shown: O=C1CN=C(c2ccccc2Cl)c2cc([N+](=O)[O-])ccc2N1 [CLONAZEPAM]
0.18 mg/dL

Answer with the recorded CREATININE of O=C1C(CC[S+]([O-])c2ccccc2)C(=O)N(c2ccccc2)N1c1ccccc1 (stereo not given) [SULFINPYRAZONE] only.
0.18 mg/dL

Continuing:
Give the reported value of CREATININE for this record: CN/C(=N/CCSCc1nc[nH]c1C)NC#N [CIMETIDINE]
0.18 mg/dL

---

Organism: Rattus norvegicus
Test: DrugMatrix - Regimen: Daily Repeat
Assay type: toxicity, organism-based, Sprague-Dawley
Set-up: regimen Daily Repeat, gender Male, age 6-8 weeks
Conditions: in vivo, po, 0 mg/kg, 120 h, tissue Blood, route oral GAVAGE, dose level Control, time 5 day, vehicle .5 % CMC
readout kind: MEAN CORPUSCULAR HEMOGLOBIN

Respond only with MEAN CORPUSCULAR HEMOGLOBIN recorded for CC(C(=O)O)c1ccc2oc(-c3ccc(Cl)cc3)nc2c1 (stereo not drawn) [BENOXAPROFEN]
20.44 pg

Others:
Please report MEAN CORPUSCULAR HEMOGLOBIN for the following compound: COc1cc2nc(N3CCN(C(=O)c4ccco4)CC3)nc(N)c2cc1OC [PRAZOSIN]
23.95 pg

Find the measured MEAN CORPUSCULAR HEMOGLOBIN of Cn1c(=O)c2c(ncn2CC(O)CO)n(C)c1=O (stereo not drawn) [DYPHYLLINE] and report it.
25.23 pg

---

Species: Rattus norvegicus
Experiment: DrugMatrix - Regimen: Daily Repeat
Type: toxicity, organism-based, Sprague-Dawley
Design: regimen Daily Repeat, gender Male, age 6-8 weeks
Details: in vivo, po, 0 mg/kg, 120 h, tissue Plasma, route oral GAVAGE, dose level Control, time 5 day, vehicle .5 % CMC
Flag rule - ALBUMIN less than 4 G/DL flags Condition met; the remaining entries get Condition not met.

Below are worked cases with known answers.
Problem: For the compound CNCCC(Oc1ccc(C(F)(F)F)cc1)c1ccccc1 (stereo not drawn) , is ALBUMIN under 4 G/DL?
Condition met

For `COC1=C(OC)C(=O)C(CCCCCCCCCCO)=C(C)C1=O` , is the recorded ALBUMIN below the cut-off of 4 G/DL?
Condition not met

For `C[C@H]1O[C@@H](n2cc(F)c(=O)[nH]c2=O)[C@H](O)[C@@H]1O` , is the recorded ALBUMIN below the cut-off of 4 G/DL?
Condition not met

Determine whether this compound shows ALBUMIN lower than 4 G/DL (ties excluded): `CN(C)[C@@H]1C(O)=C(C(N)=O)C(=O)[C@@]2(O)C(O)=C3C(=O)c4c(O)ccc(Cl)c4[C@@](C)(O)[C@H]3C[C@@H]12`
Condition not met

For this compound, is ALBUMIN lower than 4 G/DL? `CC(=O)Oc1ccc(C(c2ccc(OC(C)=O)cc2)c2ccccn2)cc1`
Condition met

Now for another entry.
Identify whether the compound O=C1Nc2ccc(Cl)cc2C(c2ccccc2Cl)=NC1O (stereo not drawn) records ALBUMIN below 4 G/DL.
Condition not met
